Assay: Absorption and plasma kinetics after oral administration of salts to rat
Conditions: male, SD, rat, plasma, po, 10 mg/kg
Where a name gives a salt, the structure may show the parent alone.

Compound | AUC(0-t) / ng·h/mL
Cn1cc(-c2ccc3nnc(C(F)(F)c4ccc5ncccc5c4)n3n2)cn1 [HCl salt] | 29600

====

Assay: Crystallographic stability of Form I on storage (TGA, DSC, XRPD, IR)
Type: physicochemical
Details: six weeks open storage, RT/56% RH

Compound | TGA <100° C.
Cn1cc(-c2ccc3nnc(C(F)(F)c4ccc5ncccc5c4)n3n2)cn1 [Form I] | 0.58%

====

Test: Absorption and plasma kinetics after oral administration of salts to rat
Details: male, SD, rat, plasma, po, 10 mg base eq./kg
Structures can show the parent of a compound that is named as a salt.
Quantity measured: concentration at 24 h (ng/mL)

Compound | Quantity measured | Assay result
Cn1cc(-c2ccc3nnc(C(F)(F)c4ccc5ncccc5c4)n3n2)cn1 [HCl salt] | concentration at 24 h | 56.1

====

Experiment: Absorption and plasma kinetics after oral administration of salts to rat
Details: male, SD, rat, plasma, po, 10 mg/kg
Structures can show the parent of a compound that is named as a salt.

Compound | AUC0-inf
Cn1cc(-c2ccc3nnc(C(F)(F)c4ccc5ncccc5c4)n3n2)cn1 [HCl salt] | 29900 ng·h/mL

====

Assay: Water adsorption (hygroscopicity) of salts of compound (I)
Assay type: physicochemical
Structures can show the parent of a compound that is named as a salt.

Molecule | Hygroscopicity
Cn1cc(-c2ccc3nnc(C(F)(F)c4ccc5ncccc5c4)n3n2)cn1 [HCl salt] | hygroscopic
CS(=O)(=O)O.Cn1cc(-c2ccc3nnc(C(F)(F)c4ccc5ncccc5c4)n3n2)cn1 [mesylate salt] | hygroscopic
CCS(=O)(=O)O.Cn1cc(-c2ccc3nnc(C(F)(F)c4ccc5ncccc5c4)n3n2)cn1 [esylate salt] | hygroscopic

====

Assay: Crystallographic stability of Form I on storage (TGA, DSC, XRPD, IR)
Assay type: physicochemical
Conditions: six weeks open storage, 40° C./75% RH
Procedure: The stability of the crystal structure of polymorph Form I of the compound (I) was studied after storage of the compound in open conditions for a period of six weeks at room temperature (RT) under <5%, 56% and 75% relative humidity (RH) at 50° C., and at 40° C. and 75% RH. The samples were analysed by TGA, DSC, XRPD and IR spectroscopy.
Quantity measured: TGA <240° C. (%)

Compound | Quantity measured | Assay result
Cn1cc(-c2ccc3nnc(C(F)(F)c4ccc5ncccc5c4)n3n2)cn1 [Form I] | TGA <240° C. | 0.48

====

Assay: Crystallographic stability of Form I on storage (TGA, DSC, XRPD, IR)
Type: physicochemical
Details: 0 days
Quantity measured: TGA <100° C. (%)

Molecule | Assay result
Cn1cc(-c2ccc3nnc(C(F)(F)c4ccc5ncccc5c4)n3n2)cn1 [Form I] | 0.12

====

Assay: Absorption and plasma kinetics after oral administration of salts to rat
Conditions: male, SD, rat, plasma, po, 10 mg base eq./kg
Counter-ions that a name gives are not always drawn.

Molecule | Units of measure | concentration at 1 h
Cn1cc(-c2ccc3nnc(C(F)(F)c4ccc5ncccc5c4)n3n2)cn1 [HCl salt] | ng/mL | 4210
